Test: NCI Yeast Anticancer Drug Screen. Data for the sgs1 strain (AID 173);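 note: 0% = growth of vehicle-only control cultures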
Details: S. cerevisiae sgs1 mutant, at 33.0 µM, hits give high values
Compounds without any hit were thinned out: in the full panel of roughly 79,000, 15% have a hit.
compounds and their reported growth inhibition
I only need the number, in %, no unit after it.

Record excerpt, results attached:
Nc1ccc2c(c1)C(=O)c1c(F)cccc1-2 | 10
CCC(/C=C/c1ccccc1)=N\Nc1ccc(Cl)cc1 | 77
CCCCS(=O)(=O)Nc1ccc(Nc2c3ccccc3nc3ccccc23)c(OC)c1 | 79
CN(C)/C(=N/C(=S)Nc1ccccc1)SCc1ccccc1 | 25
O=C(O)c1ccccc1C(=O)OC1CCc2ccccc2C1 (stereo not drawn) | 14

Problem: Form field: reported growth inhibition of CCCCCCCCSC1=C(Cl)C(=O)C(OC)=C(OC)C1=O
Solution: 3

Problem: Likewise for CCCCCCCCCCCCCCN ?
Solution: 65

Problem: Likewise for CCCN=Cc1cc(Cc2ccc(O)c(C=NCCC)c2)ccc1O ?
Solution: 98

Problem: Likewise for O=C(c1ccccc1)[C@H]1Nc2ccc(Cl)cc2[C@H]2OCCC[C@@H]12 ?
Solution: 57

Problem: Likewise for O=C(O)c1c2ccc(Cl)cc2nc2[nH]c(=O)[nH]c(=O)c12 ?
Solution: -10

Problem: Likewise for O=C(Oc1ccc([N+](=O)[O-])cc1)c1ccc([N+](=O)[O-])cc1 ?
Solution: 7

Problem: Likewise for CCC[CH2][Sn]([CH2]CCC)([CH2]CCC)/[C](=C/[Si](C)(C)c1ccccc1)c1ccc2c(c1)OCO2 ?
Solution: 90

Problem: Likewise for COc1ccccc1/C=C\C(=O)C1COCN1 (stereo not drawn) ?
Solution: 92

---

Assay: NCI Yeast Anticancer Drug Screen. Data for the CLN2oe strain (AID 163);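 note: 0% = growth of vehicle-only control cultures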
Settings: S. cerevisiae CLN2oe strain, at 3.7 µM, hits give high values
The panel holds about 79,000 compounds, 15% with a hit somewhere; the sample as a whole holds those more often.
compounds and their reported growth inhibition
I only need the number, in %, no unit after it.

CCC(/C=C/c1ccccc1)=N\Nc1ccc(Cl)c(Cl)c1 | -8

Problem: Form field: reported growth inhibition of CCCCS(=O)(=O)Nc1ccc(Nc2c3ccccc3nc3ccccc23)c(OC)c1
Solution: 3

Problem: Likewise for Cc1ccc(NC(Nc2ccc(C)cc2C)=C(C(Cl)=C(Cl)Cl)[N+](=O)[O-])c(C)c1 ?
Solution: -1

Problem: Likewise for CCC1(O)C(=O)OCc2c1cc1n(c2=O)Cc2cc3c(N)cccc3nc2-1 (centres undefined) ?
Solution: -15

---

Test: NCI Yeast Anticancer Drug Screen. Data for the rad50 strain (AID 155);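 note: 0% = growth of vehicle-only cultures of the same strain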
Settings: S. cerevisiae rad50 strain growth inhibition; at 1.2 µM; hits give high values
Description: Growth inhibition of yeast strains with defined genetic alterations is measured as a screen for potential anti-cancer activity. Selected strains with alterations in DNA damage repair or cell cycle control were exposed to compounds and growth inhibition was measured relative to vehicle treated controls. The strain used in this assay is rad50
About 79,000 compounds went through this panel and 15% of them were active in at least one assay; those are over-represented in the sample as a whole.
property_label: growth inhibition (%)
I only need the number, in %, no unit after it.

O=[N+]([O-])c1ccc2nc(=S)[nH]n2c1 | -4
CCCCCCCN(CCCCCCC)CC(=O)c1ccc2cc(Cl)c3ccccc3c2c1 | 2
O=C(NC(N1CCN(c2cc3c(cc2F)c(=O)c(C(=O)O)cn3C2CC2)CC1)(C(F)(F)F)C(F)(F)F)c1ccccc1 | -1

// moving on: another record for growth inhibition
Problem: Form field: reported growth inhibition of CC1(C)CC(=O)C(C(=O)Nc2cccs2)=C(O)C1
Solution: 14
